target: PfCRT^Ecu1110 (Plasmodium falciparum, UniProt Q9N623, A220S/I356L/K76T/N326D); test: [3H]CQ uptake into Xenopus oocytes, cis-inhibition by unlabelled solute; assay type: cell-based; settings: read-out: Uptake of [3H]CQ (% PfCRTEcu1110 control), cis-inhibition
Sequence (Q9N623 whole entry A220S/I356L/K76T/N326D): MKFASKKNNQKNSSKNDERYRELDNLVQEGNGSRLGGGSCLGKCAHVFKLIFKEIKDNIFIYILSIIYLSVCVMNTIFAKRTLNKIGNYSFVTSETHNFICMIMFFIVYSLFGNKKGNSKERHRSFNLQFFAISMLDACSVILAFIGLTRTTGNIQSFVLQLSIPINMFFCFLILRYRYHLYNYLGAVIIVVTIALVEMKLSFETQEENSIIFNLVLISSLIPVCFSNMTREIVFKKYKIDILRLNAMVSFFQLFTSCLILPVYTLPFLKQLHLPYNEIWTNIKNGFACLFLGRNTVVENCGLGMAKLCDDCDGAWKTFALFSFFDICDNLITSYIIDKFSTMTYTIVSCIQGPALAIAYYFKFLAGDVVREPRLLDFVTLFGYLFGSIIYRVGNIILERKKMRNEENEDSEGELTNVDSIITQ
Outcome measure: inhibition at 2000 µM (%)
Write the number in % without appending the unit.

Give PfCRT^Ecu1110 (Plasmodium falciparum, UniProt Q9N623, A220S/I356L/K76T/N326D) inhibition at 2000 µM for CC[C@H](C)[C@H](N)C(=O)O 101

Give PfCRT^Ecu1110 (Plasmodium falciparum, UniProt Q9N623, A220S/I356L/K76T/N326D) inhibition at 2000 µM for N[C@@H](Cc1c[nH]c2ccccc12)C(=O)O 101

Give PfCRT^Ecu1110 (Plasmodium falciparum, UniProt Q9N623, A220S/I356L/K76T/N326D) inhibition at 2000 µM for CC(C)[C@H](N)C(=O)O 96

Give PfCRT^Ecu1110 (Plasmodium falciparum, UniProt Q9N623, A220S/I356L/K76T/N326D) inhibition at 2000 µM for C[C@@H](O)[C@H](N)C(=O)O 96

Give PfCRT^Ecu1110 (Plasmodium falciparum, UniProt Q9N623, A220S/I356L/K76T/N326D) inhibition at 2000 µM for N[C@@H](CCC(=O)O)C(=O)O 99

Give PfCRT^Ecu1110 (Plasmodium falciparum, UniProt Q9N623, A220S/I356L/K76T/N326D) inhibition at 2000 µM for NC(=O)CC[C@H](N)C(=O)O 99

====

target: PfCRT^Ecu1110 (Plasmodium falciparum, UniProt Q9N623, A220S/I356L/K76T/N326D); assay: [3H]CQ uptake into Xenopus oocytes, cis-inhibition by unlabelled solute; format: cell-based; conditions: read-out: [3H]CQ transport (% PfCRTEcu1110 control), cis-inhibition, PfCRTEcu1110; SEM
Outcome measure: inhibition at 1000 µM (%)
Write the number in % without appending the unit.

Give PfCRT^Ecu1110 (Plasmodium falciparum, UniProt Q9N623, A220S/I356L/K76T/N326D) inhibition at 1000 µM for NCCCC[C@H](N)C(=O)O 29

Give PfCRT^Ecu1110 (Plasmodium falciparum, UniProt Q9N623, A220S/I356L/K76T/N326D) inhibition at 1000 µM for N[C@@H](Cc1c[nH]c2ccccc12)C(=O)O 29

Give PfCRT^Ecu1110 (Plasmodium falciparum, UniProt Q9N623, A220S/I356L/K76T/N326D) inhibition at 1000 µM for N=C(N)NCCC[C@H](N)C(=O)O 29

Give PfCRT^Ecu1110 (Plasmodium falciparum, UniProt Q9N623, A220S/I356L/K76T/N326D) inhibition at 1000 µM for C[C@@H](O)[C@H](N)C(=O)O 29

Give PfCRT^Ecu1110 (Plasmodium falciparum, UniProt Q9N623, A220S/I356L/K76T/N326D) inhibition at 1000 µM for N[C@@H](Cc1c[nH]cn1)C(=O)O 28

Give PfCRT^Ecu1110 (Plasmodium falciparum, UniProt Q9N623, A220S/I356L/K76T/N326D) inhibition at 1000 µM for N[C@@H](CS)C(=O)O 26

Give PfCRT^Ecu1110 (Plasmodium falciparum, UniProt Q9N623, A220S/I356L/K76T/N326D) inhibition at 1000 µM for N[C@@H](CO)C(=O)O 29

Give PfCRT^Ecu1110 (Plasmodium falciparum, UniProt Q9N623, A220S/I356L/K76T/N326D) inhibition at 1000 µM for N[C@@H](Cc1ccc(O)cc1)C(=O)O 29

Give PfCRT^Ecu1110 (Plasmodium falciparum, UniProt Q9N623, A220S/I356L/K76T/N326D) inhibition at 1000 µM for N[C@@H](Cc1ccccc1)C(=O)O 29

Give PfCRT^Ecu1110 (Plasmodium falciparum, UniProt Q9N623, A220S/I356L/K76T/N326D) inhibition at 1000 µM for C[C@H](N)C(=O)O 29

Give PfCRT^Ecu1110 (Plasmodium falciparum, UniProt Q9N623, A220S/I356L/K76T/N326D) inhibition at 1000 µM for CC(C)[C@H](N)C(=O)O 29

Give PfCRT^Ecu1110 (Plasmodium falciparum, UniProt Q9N623, A220S/I356L/K76T/N326D) inhibition at 1000 µM for CC(C)C[C@H](N)C(=O)O 29

Give PfCRT^Ecu1110 (Plasmodium falciparum, UniProt Q9N623, A220S/I356L/K76T/N326D) inhibition at 1000 µM for CSCC[C@H](N)C(=O)O 29

Give PfCRT^Ecu1110 (Plasmodium falciparum, UniProt Q9N623, A220S/I356L/K76T/N326D) inhibition at 1000 µM for O=C(O)[C@@H]1CCCN1 28
